Consider compounds characterized by their z.score.t with hPSC-SCs.
Form field (numeric): enter value without unit.

Reference set (3 entries):
{"compound": "C[C@@H]1CC[C@@]2(NC1)O[C@H]1C[C@H]3[C@@H]4CC=C5C[C@@H](O)CC[C@]5(C)[C@H]4CC[C@]3(C)[C@H]1[C@@H]2C", "recorded-result": 0.9178}
{"compound": "Cc1cc(=O)n(-c2ccccc2)n1C [Antipyrine]", "recorded-result": "−0.2131"}
{"compound": "C=C1C/C(=C/C)C(=O)O[C@@H]2CCN3CC=C(COC(=O)[C@]1(C)O)[C@H]23", "recorded-result": 0.767}

Prompt: Fill blank: measured z.score.t of the compound c1cncc([C@@H]2CCCCN2)c1 is ____.
Completion: −0.1239

###

Consider compounds characterized by their z.score.t with hPSC-SCs.
Form field (numeric): enter value without unit.

{"compound": "O.O=C(O)[C@@H]1[C@H]2C[C@H]3c4[nH]c5ccccc5c4CCN3C[C@@H]2CC[C@@H]1O [Yohimbinic acid monohydrate]", "z.score.t": "−0.2065"}

Prompt: What z.score.t appears in the records for this compound with hPSC-SCs? C=C[C@]12CN(C)[C@@H]3[C@H]4CO[C@H](C[C@H]41)[C@]1(C(=O)Nc4ccccc41)[C@@H]32
Completion: 1.601

Prompt: What z.score.t appears in the records for this compound with hPSC-SCs? CCCCOC(=O)c1ccc(O)cc1
Completion: −0.2359

Prompt: What z.score.t appears in the records for this compound with hPSC-SCs? CCOC(=O)c1cncn1[C@H](C)c1ccccc1 [Etomidate]
Completion: −0.1902

Prompt: What z.score.t appears in the records for this compound with hPSC-SCs? Cc1ncc(CO)c(CO)c1O.Cl [Pyridoxine hydrochloride]
Completion: −0.5337

Prompt: What z.score.t appears in the records for this compound with hPSC-SCs? CC[C@@H](C)C(=O)O[C@H]1[C@H](O)[C@H]2[C@@H](CN3C[C@@H](C)CC[C@H]3[C@@]2(C)O)[C@@H]2C[C@]34O[C@]5(O)[C@@H](OC(=O)[C@@](C)(O)CC)CC[C@@]3(C)[C@@H]5[C@@H](OC(C)=O)[C@@H](OC(C)=O)[C@H]4[C@@]21O
Completion: −0.3319

Prompt: What z.score.t appears in the records for this compound with hPSC-SCs? O=C1C=CC(=O)c2c1ccc1c2ccc2ccccc21
Completion: −1.823

###

Consider molecules characterized by their z.score.t with hPSC-SCs.
Where a name gives a salt, the structure may show the parent alone. Non-standard residues stand in square brackets, D forms with d. Residues, ends and D or L forms follow the SMILES beside them. *: point of attachment. Sta = CC(C)C[C@H](N)[C@@H](O)CC(=O)O; Isovaleryl = CC(C)CC(=O)*
Form field (numeric): enter value without unit.

Reference set (10 entries):
{"molecule": "C/C=C1/C[N@+]2(C)CC[C@]34C(=C(C=O)[C@H]1C[C@@H]32)Nc1ccccc14.[Cl-] [Fluorocurarine chloride]", "test-system": "hPSC-SCs", "recorded-result": 1.364}
{"molecule": "CC[C@@H](CO)NC(=O)[C@@H]1C=C2c3cccc4[nH]cc(c34)C[C@H]2N(C)C1 [Methylergometrine maleate]", "test-system": "hPSC-SCs", "recorded-result": 1.669}
{"molecule": "CC(=O)N(O)CCCCCNC(=O)CCC(=O)N(O)CCCCCNC(=O)CCC(=O)N(O)CCCCCN [Deferoxamine mesylate]", "test-system": "hPSC-SCs", "recorded-result": 0.557}
{"molecule": "CN(C)C(=O)Oc1cccc([N+](C)(C)C)c1 [Neostigmine bromide]", "test-system": "hPSC-SCs", "recorded-result": 1.018}
{"molecule": "C=C1[C@@H]2CC[C@H]3[C@]4(C)C[C@H](O[C@@H]5O[C@H](CO)[C@@H](OS(=O)(=O)O)[C@H](OS(=O)(=O)O)[C@H]5OC(=O)CC(C)C)C[C@@H](C(=O)O)[C@H]4CC[C@]3(C2)[C@@H]1O [Atractyloside potassium salt]", "test-system": "hPSC-SCs", "recorded-result": "−0.7376"}
{"molecule": "CC1=C2[C@H]3OC(=O)[C@@H](C)[C@@H]3CC[C@@]2(C)C=CC1=O", "test-system": "hPSC-SCs", "recorded-result": "−1.108"}
{"molecule": "Cc1cc2c(C(C)C)c(O)c(O)c(C=O)c2c(O)c1-c1c(C)cc2c(C(C)C)c(O)c(O)c(C=O)c2c1O", "test-system": "hPSC-SCs", "recorded-result": "−2.368"}
{"molecule": "C[C@]12CC[C@H]3[C@@H](CCC4=CC(=O)CC[C@@H]43)[C@@H]1CC[C@@H]2O", "test-system": "hPSC-SCs", "recorded-result": 1.306}
{"molecule": "CCCC(C)(COC(N)=O)COC(=O)NC(C)C (centres unmarked)", "test-system": "hPSC-SCs", "recorded-result": 0.425}
{"molecule": "CC(C)CC(=O)N[C@H](C(=O)N[C@H](C(=O)N[C@@H](CC(C)C)[C@@H](O)CC(=O)N[C@@H](C)C(=O)N[C@@H](CC(C)C)[C@@H](O)CC(=O)O)C(C)C)C(C)C [Pepstatin A] (Isovaleryl-VV[Sta]A[Sta]-OH)", "test-system": "hPSC-SCs", "recorded-result": "−1.319"}

Prompt: What z.score.t appears in the records for this molecule with hPSC-SCs? CCN1C[C@]2(COC)CC[C@H](OC)[C@]34C5C[C@@H]6[C@@H](OC)C[C@@]7(OCO[C@@]7(C13)[C@@H](O)C24)C5[C@H]6OC (some centres unmarked)
Completion: −0.9741

Prompt: What z.score.t appears in the records for this molecule with hPSC-SCs? CCC(=O)O[C@@](Cc1ccccc1)(c1ccccc1)[C@@H](C)CN(C)C [Levopropoxyphene napsylate]
Completion: −0.5351

Prompt: What z.score.t appears in the records for this molecule with hPSC-SCs? Cl.NCC(O)c1ccc(O)cc1 (racemic) [(+, −)-Octopamine hydrochloride]
Completion: 0.6574

Prompt: What z.score.t appears in the records for this molecule with hPSC-SCs? CCCc1ncc(C[n+]2ccccc2C)c(N)n1 [Amprolium hydrochloride]
Completion: −1.615

Prompt: What z.score.t appears in the records for this molecule with hPSC-SCs? O=C(O)C1CCCNC1 (racemic)
Completion: −0.7376

Prompt: What z.score.t appears in the records for this molecule with hPSC-SCs? CC(=O)O[C@H]1C[C@H](O[C@H]2[C@@H](O)C[C@H](O[C@H]3[C@@H](O)C[C@H](O[C@H]4CC[C@@]5(C)[C@H](CC[C@@H]6[C@@H]5C[C@@H](O)[C@]5(C)[C@@H](C7=CC(=O)OC7)CC[C@]65O)C4)O[C@@H]3C)O[C@@H]2C)O[C@H](C)[C@H]1O[C@@H]1O[C@H](CO)[C@@H](O)[C@H](O)[C@H]1O [Lanatoside C]
Completion: −2.334

Prompt: What z.score.t appears in the records for this molecule with hPSC-SCs? CC(C)C[C@H]1C(=O)N2CCC[C@H]2[C@]2(O)O[C@](NC(=O)[C@@H]3C=C4c5cccc6[nH]cc(c56)C[C@H]4N(C)C3)(C(C)C)C(=O)N12
Completion: 0.495

Prompt: What z.score.t appears in the records for this molecule with hPSC-SCs? CN1CCCN(C(c2ccccc2)c2ccc(Cl)cc2)CC1 (centres unmarked) [Homochlorcyclizine dihydrochloride]
Completion: −1.66

Prompt: What z.score.t appears in the records for this molecule with hPSC-SCs? CCN1C[C@]2(COC)CC[C@H](O)[C@]34C1[C@@](O)([C@@H](OC)[C@H]23)[C@@]1(O)C[C@H](OC)[C@H]2C[C@@H]4[C@@H]1[C@H]2OC
Completion: 1.566

Prompt: What z.score.t appears in the records for this molecule with hPSC-SCs? C1CCN2C[C@@H]3C[C@@H](CN4CCCC[C@@H]34)[C@H]2C1 [Sparteine (−)]
Completion: 0.1131

Prompt: What z.score.t appears in the records for this molecule with hPSC-SCs? C[C@@H]1C[C@@H]([C@H](O)CC2CC(=O)NC(=O)C2)C(=O)[C@@H](C)C1 [Cycloheximide]
Completion: −2.003

Prompt: What z.score.t appears in the records for this molecule with hPSC-SCs? CC(=O)OCC1=C(C(=O)O)N2C(=O)[C@@H](N)[C@H]2SC1
Completion: −0.7049

Prompt: What z.score.t appears in the records for this molecule with hPSC-SCs? O.O.O=c1c(O)c(-c2ccc(O)c(O)c2)oc2cc(O)cc(O)c12 [Quercetine dihydrate]
Completion: 1.371

###

Consider molecules characterized by their z.score.t with hPSC-SCs.
Form field (numeric): enter value without unit.

Prompt: What z.score.t appears in the records for this molecule with hPSC-SCs? O=C(NCNC(=O)NC1C(=O)NC(=O)N1CO)NC1C(=O)NC(=O)N1CO (stereo not shown) [Imidurea]
Completion: 1.224
